assayed-system: STAT3 (Homo sapiens, UniProt P40763)
Sequence (P40763 whole entry, species assumed): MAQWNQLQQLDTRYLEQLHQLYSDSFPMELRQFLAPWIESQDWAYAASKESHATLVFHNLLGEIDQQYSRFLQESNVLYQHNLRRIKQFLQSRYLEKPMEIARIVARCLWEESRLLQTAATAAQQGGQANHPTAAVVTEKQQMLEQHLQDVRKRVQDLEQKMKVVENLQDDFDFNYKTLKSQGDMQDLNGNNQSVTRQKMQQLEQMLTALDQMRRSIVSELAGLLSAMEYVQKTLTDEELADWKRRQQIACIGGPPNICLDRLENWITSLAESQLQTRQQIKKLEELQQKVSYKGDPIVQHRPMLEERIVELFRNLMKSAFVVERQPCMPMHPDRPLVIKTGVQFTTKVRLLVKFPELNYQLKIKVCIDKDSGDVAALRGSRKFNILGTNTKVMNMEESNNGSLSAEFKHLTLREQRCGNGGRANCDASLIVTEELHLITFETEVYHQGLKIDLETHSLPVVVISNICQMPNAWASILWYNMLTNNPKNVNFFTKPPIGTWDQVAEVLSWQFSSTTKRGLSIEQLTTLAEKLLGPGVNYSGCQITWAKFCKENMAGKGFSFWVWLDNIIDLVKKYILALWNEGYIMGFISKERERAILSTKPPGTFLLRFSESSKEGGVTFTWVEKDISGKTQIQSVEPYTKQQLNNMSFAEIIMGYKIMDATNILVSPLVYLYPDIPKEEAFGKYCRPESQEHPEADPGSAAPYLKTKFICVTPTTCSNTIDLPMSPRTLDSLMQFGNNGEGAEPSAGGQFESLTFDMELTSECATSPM
pKi: −log10 of the molar value. Square brackets hold non-standard residues; d marks the D form. Peptide text beside a SMILES is read from it. pY = N[C@@H](Cc1ccc(OP(=O)(O)O)cc1)C(=O)O
Assign 1 to entries whose pKi meets or exceeds 5; assign 0 to the rest.

molecule	assigned-category
O=P(O)(O)Oc1ccc(-c2ccccc2)cc1F [Compound 6h]	1
O=P(O)(O)Oc1ccc(-c2ccc3ccccc3c2)cc1F [Compound 6m]	1
CC[C@H](C)[C@H](NC(=O)[C@H](CC(N)=O)NC(=O)[C@H](CCC(N)=O)NC(=O)[C@@H]1CCCN1C(=O)[C@H](CC(C)C)NC(=O)[C@H](Cc1ccc(OP(=O)(O)O)cc1)NC(=O)CNC(C)=O)C(=O)N[C@@H](CC(=O)O)C(=O)O [Ac‐GpYLPQNID, reference compound] (Ac-G[pY]LPQNID-OH)	1
O=P(O)(O)C(F)(F)c1ccc(-c2ccc3ccccc3c2)cc1F [Compound 8a]	0
O=P(O)(O)Oc1ccc(-c2ccc3ccccc3c2)cc1 [Compound 6g]	0

---

assayed-system: UniProt P42229
Sequence (P42229 1-794): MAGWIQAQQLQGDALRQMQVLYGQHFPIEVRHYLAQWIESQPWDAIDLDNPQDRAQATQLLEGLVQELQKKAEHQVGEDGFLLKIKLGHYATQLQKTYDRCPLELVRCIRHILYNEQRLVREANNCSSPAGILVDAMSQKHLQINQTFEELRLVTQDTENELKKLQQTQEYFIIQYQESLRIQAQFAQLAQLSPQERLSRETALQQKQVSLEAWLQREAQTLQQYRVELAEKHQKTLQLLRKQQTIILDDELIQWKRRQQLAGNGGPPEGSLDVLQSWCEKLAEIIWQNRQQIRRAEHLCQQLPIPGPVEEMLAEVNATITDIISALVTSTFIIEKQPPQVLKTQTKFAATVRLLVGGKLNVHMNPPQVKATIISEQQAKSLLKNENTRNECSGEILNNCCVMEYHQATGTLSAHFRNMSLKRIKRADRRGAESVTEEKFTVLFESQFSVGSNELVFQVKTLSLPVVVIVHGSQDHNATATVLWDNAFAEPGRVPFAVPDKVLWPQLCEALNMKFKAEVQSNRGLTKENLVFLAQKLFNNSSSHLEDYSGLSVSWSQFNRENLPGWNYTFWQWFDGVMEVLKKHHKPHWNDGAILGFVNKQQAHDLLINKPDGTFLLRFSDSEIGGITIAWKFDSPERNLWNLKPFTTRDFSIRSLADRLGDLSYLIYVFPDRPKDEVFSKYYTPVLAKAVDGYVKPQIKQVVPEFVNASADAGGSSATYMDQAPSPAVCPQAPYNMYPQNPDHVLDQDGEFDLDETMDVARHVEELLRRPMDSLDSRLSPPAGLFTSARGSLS
IC50 under 60 µM gets 1 (yes), anything at or over 60 µM gets 0 (no).

> print(dat)
                                   molecule  assayed.system  assigned.category
1  O=P(O)(O)C(F)(F)c1ccc(-c2ccc3ccccc3c2)cc1F [Compound 8a]  UniProt P42229            1 (yes)
2  Cc1cc(-c2ccc(C(F)(F)P(=O)(O)O)c(F)c2)cs1 [Compound 8k]  UniProt P42229             0 (no)
3  O=P(O)(O)Oc1ccc(-c2ccc3ccccc3c2)cc1 [Compound 6g]  UniProt P42229            1 (yes)
4  O=P(O)(O)Oc1ccc(-c2ccccc2)cc1 [Compound 1, para‐biphenyl phosphate]  UniProt P42229            1 (yes)
5  O=P(O)(O)Oc1ccc(-c2ccccc2)cc1F [Compound 6h]  UniProt P42229            1 (yes)
6  O=P(O)(O)Oc1ccc(-c2ccc3ccccc3c2)cc1F [Compound 6m]  UniProt P42229            1 (yes)

---

pKi: −log10 of the molar value. Square brackets hold non-standard residues; d marks the D form. Peptide text beside a SMILES is read from it. pY = N[C@@H](Cc1ccc(OP(=O)(O)O)cc1)C(=O)O
These compounds were tested on STAT1 (Homo sapiens, UniProt P42224); pKi is the recorded read-out.
Sequence (P42224 whole entry, species assumed): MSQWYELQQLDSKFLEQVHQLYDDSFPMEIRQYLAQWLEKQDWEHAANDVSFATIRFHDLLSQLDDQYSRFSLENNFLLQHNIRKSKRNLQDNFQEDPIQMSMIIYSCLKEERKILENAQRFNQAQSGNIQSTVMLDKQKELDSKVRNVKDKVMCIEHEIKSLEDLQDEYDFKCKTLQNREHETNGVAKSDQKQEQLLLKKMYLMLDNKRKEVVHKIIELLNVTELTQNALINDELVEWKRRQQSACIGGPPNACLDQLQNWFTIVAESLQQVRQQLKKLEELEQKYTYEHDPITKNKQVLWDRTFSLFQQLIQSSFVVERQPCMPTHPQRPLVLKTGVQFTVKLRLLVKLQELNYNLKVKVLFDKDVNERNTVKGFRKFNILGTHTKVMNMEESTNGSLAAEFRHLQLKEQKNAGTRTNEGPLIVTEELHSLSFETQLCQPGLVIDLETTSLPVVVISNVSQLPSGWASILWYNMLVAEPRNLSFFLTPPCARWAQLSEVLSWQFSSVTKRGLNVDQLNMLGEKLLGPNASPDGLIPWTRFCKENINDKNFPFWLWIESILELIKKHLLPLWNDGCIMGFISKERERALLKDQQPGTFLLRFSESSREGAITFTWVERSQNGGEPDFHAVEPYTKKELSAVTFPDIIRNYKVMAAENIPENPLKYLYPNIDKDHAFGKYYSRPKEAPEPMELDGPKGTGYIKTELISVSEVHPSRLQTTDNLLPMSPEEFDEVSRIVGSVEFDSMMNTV
measurement-label: pKi

compound	endpoint-result
CC[C@H](C)[C@H](NC(=O)[C@H](CC(N)=O)NC(=O)[C@H](CCC(N)=O)NC(=O)[C@@H]1CCCN1C(=O)[C@H](CC(C)C)NC(=O)[C@H](Cc1ccc(OP(=O)(O)O)cc1)NC(=O)CNC(C)=O)C(=O)N[C@@H](CC(=O)O)C(=O)O [Ac‐GpYLPQNID, reference compound] (Ac-G[pY]LPQNID-OH)	6.44
O=P(O)(O)Oc1ccc(-c2ccccc2)cc1F	5.20
O=P(O)(O)Oc1ccc(-c2ccc3ccccc3c2)cc1F	5.42

---

assayed-system: UniProt:Q14765
Sequence (Q14765 1-748): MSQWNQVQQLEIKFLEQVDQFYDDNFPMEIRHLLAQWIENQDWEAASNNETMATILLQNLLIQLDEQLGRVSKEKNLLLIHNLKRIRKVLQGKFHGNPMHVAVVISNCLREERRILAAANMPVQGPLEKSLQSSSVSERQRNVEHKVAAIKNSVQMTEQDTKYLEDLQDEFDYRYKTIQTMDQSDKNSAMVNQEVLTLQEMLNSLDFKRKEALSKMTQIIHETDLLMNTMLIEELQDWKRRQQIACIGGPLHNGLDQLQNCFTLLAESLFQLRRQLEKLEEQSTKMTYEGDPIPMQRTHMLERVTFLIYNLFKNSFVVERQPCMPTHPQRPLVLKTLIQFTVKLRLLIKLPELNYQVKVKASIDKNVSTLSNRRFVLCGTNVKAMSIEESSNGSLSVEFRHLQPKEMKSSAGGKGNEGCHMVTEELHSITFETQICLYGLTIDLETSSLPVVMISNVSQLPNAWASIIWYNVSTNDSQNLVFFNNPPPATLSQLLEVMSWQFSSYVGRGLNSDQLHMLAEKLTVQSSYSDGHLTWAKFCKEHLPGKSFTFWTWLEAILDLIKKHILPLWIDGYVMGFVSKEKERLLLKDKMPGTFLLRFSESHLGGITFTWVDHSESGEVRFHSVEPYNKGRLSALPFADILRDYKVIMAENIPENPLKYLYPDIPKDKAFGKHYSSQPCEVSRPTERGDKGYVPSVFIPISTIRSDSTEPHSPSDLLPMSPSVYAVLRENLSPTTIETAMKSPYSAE
Documented Ki across a set of molecules
measurement-label: Ki (µM)

> print(dat)
                                   molecule  endpoint.result
1  COc1cc(OC)cc(-c2ccc(OP(=O)(O)O)cc2)c1 [Compound 6e]              1.9
2  O=P(O)(O)Oc1ccc(-c2cccc3ccccc23)cc1 [Compound 6f]             0.84
3  Cc1cscc1-c1ccc(C(F)(F)P(=O)(O)O)c(F)c1 [Compound 8m]              8.9
4  COC(=O)c1cc(-c2ccc(C(F)(F)P(=O)(O)O)c(F)c2)cs1 [Compound 8f]              4.4
5  CC(=O)c1cc(-c2ccc(C(F)(F)P(=O)(O)O)c(F)c2)cs1 [Compound 8h]              7.1
6  O=P(O)(O)C(F)(F)c1ccc(-c2cccs2)cc1F [Compound 8d]              3.6
7  CC(=O)NCc1ccccc1-c1ccc(OP(=O)(O)O)cc1 [Compound 6d]              6.2
8  O=P(O)(O)Oc1c(F)cc(-c2ccccc2)cc1F [Compound 6j]                2
